Origin of measurements: ChEMBL document CHEMBL1821619

- assayedTarget: hERG (KCNH2) (Homo sapiens, UniProt Q12809)
- Sequence (Q12809 whole entry): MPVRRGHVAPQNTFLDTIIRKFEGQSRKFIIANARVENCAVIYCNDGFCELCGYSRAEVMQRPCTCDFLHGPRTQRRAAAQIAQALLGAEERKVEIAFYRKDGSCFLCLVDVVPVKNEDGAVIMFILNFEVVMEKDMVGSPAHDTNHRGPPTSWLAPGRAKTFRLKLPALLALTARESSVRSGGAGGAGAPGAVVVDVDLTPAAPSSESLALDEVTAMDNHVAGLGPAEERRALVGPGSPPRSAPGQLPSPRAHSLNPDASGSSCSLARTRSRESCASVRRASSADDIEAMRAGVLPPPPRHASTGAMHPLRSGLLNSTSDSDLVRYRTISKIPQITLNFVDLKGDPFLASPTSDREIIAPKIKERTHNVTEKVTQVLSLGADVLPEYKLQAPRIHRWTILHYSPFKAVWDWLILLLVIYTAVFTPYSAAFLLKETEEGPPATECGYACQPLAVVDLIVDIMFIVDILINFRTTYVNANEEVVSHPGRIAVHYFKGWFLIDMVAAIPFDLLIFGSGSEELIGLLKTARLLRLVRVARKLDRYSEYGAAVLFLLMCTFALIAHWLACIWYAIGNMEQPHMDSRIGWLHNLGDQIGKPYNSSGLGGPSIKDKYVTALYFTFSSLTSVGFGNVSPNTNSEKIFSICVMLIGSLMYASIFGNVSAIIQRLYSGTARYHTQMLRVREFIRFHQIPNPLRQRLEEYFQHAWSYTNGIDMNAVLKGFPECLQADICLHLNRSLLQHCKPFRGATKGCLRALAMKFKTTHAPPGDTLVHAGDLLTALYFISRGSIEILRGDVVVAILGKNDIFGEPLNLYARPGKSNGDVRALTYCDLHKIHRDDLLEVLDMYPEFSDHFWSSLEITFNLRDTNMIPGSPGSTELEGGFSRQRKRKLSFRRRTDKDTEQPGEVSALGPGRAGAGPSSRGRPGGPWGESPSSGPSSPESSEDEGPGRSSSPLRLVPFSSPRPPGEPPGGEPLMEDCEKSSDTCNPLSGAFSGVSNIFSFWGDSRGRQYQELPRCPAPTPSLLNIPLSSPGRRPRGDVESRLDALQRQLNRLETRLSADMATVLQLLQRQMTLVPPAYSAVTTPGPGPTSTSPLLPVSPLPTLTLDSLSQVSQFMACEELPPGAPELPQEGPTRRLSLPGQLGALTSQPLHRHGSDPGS
- assayProtocol: Inhibition of human ERG expressed in HEK293 cells at 1 uM by patch clamp assay
- Format: cell-based
- conditions: HEK293 cells expressing human ERG
endpoint: inhibition at 1 µM (%)

# structureNotation, reportedMeasurement
records = [
    ("c1cc([C@H]2CC[C@@H](N3CCCC3)CC2)ccc1OCCCN1CCCCC1", 11),
    ("c1cc([C@H]2CC[C@H](N3CCCCC3)CC2)ccc1OCCCN1CCCCC1", 42),
    ("c1cc([C@H]2CC[C@H](N3CCCC3)CC2)ccc1OCCCN1CCCCC1", 14),
]

====

- assayProtocol: AUC (0 to 8 hrs) in Swiss mouse plasma at 10 mg/kg, po by LC-MS/MS
- Type: ADME, organism-based
- Set-up: time < 8 hr, dose 10 mg/kg, route oral

# structureNotation, AUC(0-t) at 8 h (ng·h/mL)
rows = [
    ("c1cc([C@H]2CC[C@H](N3CCOCC3)CC2)ccc1OCCCN1CCCCC1", 2110),
]

====

- assayProtocol: AUC (0 to 8 hrs) in Swiss mouse brain at 10 mg/kg, po by LC-MS/MS
- Type: ADME, organism-based
- Parameters: time < 8 hr, dose 10 mg/kg, route oral

# structureNotation, AUC(0-t) at 8 h
data = [
    ("c1cc([C@H]2CC[C@H](N3CCOCC3)CC2)ccc1OCCCN1CCCCC1", "15600 ng·h/mL"),
]

====

Listed next: entries and their corresponding pKi.
- assayedTarget: Histamine H3 receptor (Homo sapiens, UniProt Q9Y5N1)
- Sequence (Q9Y5N1 whole entry): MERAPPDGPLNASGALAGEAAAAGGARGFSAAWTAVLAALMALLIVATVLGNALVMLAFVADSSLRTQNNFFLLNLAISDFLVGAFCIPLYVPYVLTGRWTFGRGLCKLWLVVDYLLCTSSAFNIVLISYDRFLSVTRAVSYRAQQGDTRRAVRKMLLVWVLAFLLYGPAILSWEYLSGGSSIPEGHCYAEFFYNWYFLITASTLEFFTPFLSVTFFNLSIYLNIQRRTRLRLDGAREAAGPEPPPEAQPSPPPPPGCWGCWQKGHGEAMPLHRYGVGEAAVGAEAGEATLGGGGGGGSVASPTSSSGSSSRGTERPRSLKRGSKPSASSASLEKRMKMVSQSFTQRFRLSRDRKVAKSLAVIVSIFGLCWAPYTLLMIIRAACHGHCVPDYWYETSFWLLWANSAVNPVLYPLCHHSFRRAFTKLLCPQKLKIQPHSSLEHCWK
- assayProtocol: Displacement of [125I]Iodoproxyfan from recombinant human histamine H3 receptor expressed in HEK293 cells after 60 mins
pKi: −log10 of the molar value.
endpoint: pKi

# structureNotation, endpoint, reportedMeasurement
rows = [
    ("c1ccc(CN[C@H]2CC[C@@H](c3ccc(OCCCN4CCCCC4)cc3)CC2)cc1", "pKi", 9.54),
    ("O=C1CCC(c2ccc(OCCCN3CCCCC3)cc2)CC1", "pKi", 8.77),
    ("c1cc([C@H]2CC[C@@H](N3CCCC3)CC2)ccc1OCCCN1CCCCC1", "pKi", 9.48),
    ("CCCCN[C@H]1CC[C@@H](c2ccc(OCCCN3CCCCC3)cc2)CC1", "pKi", 9.28),
    ("CN[C@H]1CC[C@H](c2ccc(OCCCN3CCCCC3)cc2)CC1", "pKi", 8.49),
    ("OC1CCN([C@H]2CC[C@@H](c3ccc(OCCCN4CCCCC4)cc3)CC2)CC1", "pKi", 9.04),
    ("c1cc([C@H]2CC[C@@H](N3CCC3)CC2)ccc1OCCCN1CCCCC1", "pKi", 9.47),
    ("c1cc([C@H]2CC[C@H](N3CCOCC3)CC2)ccc1OCCCN1CCCCC1", "pKi", 9.39),
    ("c1ccc2c(c1)CN([C@H]1CC[C@@H](c3ccc(OCCCN4CCCCC4)cc3)CC1)C2", "pKi", 9.39),
    ("c1cc([C@H]2CC[C@H](N3CCCCC3)CC2)ccc1OCCCN1CCCCC1", "pKi", 9.19),
    ("CC1CCN([C@H]2CC[C@@H](c3ccc(OCCCN4CCCCC4)cc3)CC2)CC1", "pKi", 9.25),
]

====

- assayedTarget: CYP2D6 (Homo sapiens, UniProt P10635)
- Sequence (P10635 whole entry): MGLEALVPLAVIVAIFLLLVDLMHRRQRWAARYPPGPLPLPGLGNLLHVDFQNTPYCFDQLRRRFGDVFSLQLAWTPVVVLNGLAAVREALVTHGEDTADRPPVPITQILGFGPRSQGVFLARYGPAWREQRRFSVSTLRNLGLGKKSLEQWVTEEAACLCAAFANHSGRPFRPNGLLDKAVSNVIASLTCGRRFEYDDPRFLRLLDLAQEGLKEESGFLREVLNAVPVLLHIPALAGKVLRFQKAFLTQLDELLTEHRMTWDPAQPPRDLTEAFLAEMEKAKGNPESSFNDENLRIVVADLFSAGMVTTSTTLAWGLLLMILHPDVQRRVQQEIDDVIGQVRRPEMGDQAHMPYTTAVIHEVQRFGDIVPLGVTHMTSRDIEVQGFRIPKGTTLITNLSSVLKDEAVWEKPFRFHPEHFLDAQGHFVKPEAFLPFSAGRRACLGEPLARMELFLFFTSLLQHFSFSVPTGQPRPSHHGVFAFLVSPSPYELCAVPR
- assayProtocol: Inhibition of CYP2D6 at 1 uM
- Assay type: ADME
Below, each of the compounds is paired with its reported inhibition at 1 µM value.
endpoint: inhibition at 1 µM (%)

# structureNotation, endpoint, reportedMeasurement
data = [
    ("OC1CCN([C@H]2CC[C@H](c3ccc(OCCCN4CCCCC4)cc3)CC2)CC1", "inhibition at 1 µM", 15.7),
    ("c1cc([C@H]2CC[C@H](N3CCCCC3)CC2)ccc1OCCCN1CCCCC1", "inhibition at 1 µM", 1.4),
    ("O=C1CCC(c2ccc(OCCCN3CCCCC3)cc2)CC1", "inhibition at 1 µM", 3.8),
    ("c1cc([C@H]2CC[C@H](N3CCC3)CC2)ccc1OCCCN1CCCCC1", "inhibition at 1 µM", 0.8),
    ("CC1CCN([C@H]2CC[C@@H](c3ccc(OCCCN4CCCCC4)cc3)CC2)CC1", "inhibition at 1 µM", -7.8),
]

====

- assayedTarget: CYP2D6 (Homo sapiens, UniProt P10635)
- assayProtocol: Inhibition of CYP2D6 at 1 uM
- Format: ADME
endpoint: inhibition at 1 µM (%)

# structureNotation, assayedTarget, endpoint, reportedMeasurement
records = [
    ("CCCCN[C@H]1CC[C@H](c2ccc(OCCCN3CCCCC3)cc2)CC1", "CYP2D6 (Homo sapiens, UniProt P10635)", "inhibition at 1 µM", -8.9),
    ("c1ccc(CN[C@H]2CC[C@H](c3ccc(OCCCN4CCCCC4)cc3)CC2)cc1", "CYP2D6 (Homo sapiens, UniProt P10635)", "inhibition at 1 µM", 20),
    ("c1ccc2c(c1)CN([C@H]1CC[C@H](c3ccc(OCCCN4CCCCC4)cc3)CC1)C2", "CYP2D6 (Homo sapiens, UniProt P10635)", "inhibition at 1 µM", 21.9),
    ("CN1CCN([C@H]2CC[C@H](c3ccc(OCCCN4CCCCC4)cc3)CC2)CC1", "CYP2D6 (Homo sapiens, UniProt P10635)", "inhibition at 1 µM", 3.4),
    ("CCCCN[C@H]1CC[C@@H](c2ccc(OCCCN3CCCCC3)cc2)CC1", "CYP2D6 (Homo sapiens, UniProt P10635)", "inhibition at 1 µM", 2.9),
]

====

- assayedTarget: hERG (KCNH2) (Homo sapiens)
- assayProtocol: Inhibition of human ERG expressed in HEK293 cells at 10 uM by patch clamp assay
- Type: cell-based
- conditions: HEK293 cells expressing human ERG
A collection of compounds and their measured inhibition at 10 µM

# structureNotation, inhibition at 10 µM [%]
data = [
    ("c1cc([C@H]2CC[C@H](N3CCCC3)CC2)ccc1OCCCN1CCCCC1", 22),
    ("c1cc([C@H]2CC[C@H](N3CCOCC3)CC2)ccc1OCCCN1CCCCC1", 34),
    ("c1cc([C@H]2CC[C@H](N3CCC3)CC2)ccc1OCCCN1CCCCC1", 41),
    ("c1cc([C@H]2CC[C@@H](N3CCCC3)CC2)ccc1OCCCN1CCCCC1", 15),
]

====

A short record of pIC50 observed with Cytochrome P450 2D6 (Homo sapiens, UniProt P10635) follows.
Sequence (P10635 whole entry): as the sequence (P10635 whole entry) above
pIC50: −log10 of the molar value.

# structureNotation, assayedTarget, pIC50
records = [
    ("c1cc([C@H]2CC[C@H](N3CCCC3)CC2)ccc1OCCCN1CCCCC1", "Cytochrome P450 2D6 (Homo sapiens, UniProt P10635)", "< 4.00"),
    ("c1cc([C@H]2CC[C@@H](N3CCCC3)CC2)ccc1OCCCN1CCCCC1", "Cytochrome P450 2D6 (Homo sapiens, UniProt P10635)", "< 4.00"),
]

====

- assayProtocol: AUC (0 to 3 hrs) in Swiss mouse brain at 10 mg/kg, po by LC-MS/MS
- Format: ADME, organism-based
- Design: time < 3 hr, dose 10 mg/kg, route oral
endpoint: AUC(0-t) at 3 h (ng·h/mL)

# structureNotation, reportedMeasurement
measured = [
    ("c1cc(OCCCN2CCCCC2)ccc1CN1CCCCC1", 1100),
]

====

- assayedTarget: UniProt:P08684
- Sequence (P08684 whole entry): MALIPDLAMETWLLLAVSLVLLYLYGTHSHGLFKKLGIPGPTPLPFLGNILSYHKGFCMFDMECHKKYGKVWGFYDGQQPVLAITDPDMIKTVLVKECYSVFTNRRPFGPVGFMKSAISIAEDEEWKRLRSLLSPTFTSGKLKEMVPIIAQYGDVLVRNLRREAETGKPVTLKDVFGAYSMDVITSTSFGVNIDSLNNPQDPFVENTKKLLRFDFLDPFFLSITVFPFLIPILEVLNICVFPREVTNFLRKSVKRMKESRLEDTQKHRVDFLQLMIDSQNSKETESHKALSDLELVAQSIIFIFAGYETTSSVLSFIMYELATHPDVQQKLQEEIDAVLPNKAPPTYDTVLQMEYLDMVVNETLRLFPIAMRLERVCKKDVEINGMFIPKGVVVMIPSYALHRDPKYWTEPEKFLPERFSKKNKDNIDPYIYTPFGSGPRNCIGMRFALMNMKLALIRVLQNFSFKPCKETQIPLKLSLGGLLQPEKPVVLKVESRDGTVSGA
- assayProtocol: Inhibition of CYP3A4
- Format: ADME
pIC50: −log10 of the molar value.

# structureNotation, pIC50
records = [
    ("c1cc([C@H]2CC[C@@H](N3CCCC3)CC2)ccc1OCCCN1CCCCC1", 4.38),
    ("CN(C)[C@H]1CC[C@H](c2ccc(OCCCN3CCCCC3)cc2)CC1", 4.37),
    ("CN(C)[C@H]1CC[C@@H](c2ccc(OCCCN3CCCCC3)cc2)CC1", 4.30),
]

====

Readings of pKi for the listed compounds
- assayedTarget: UniProt:Q9Y5N1
- assayProtocol: Displacement of [125I]Iodoproxyfan from recombinant human histamine H3 receptor expressed in HEK293 cells after 60 mins
- Format: cell-based
pKi: −log10 of the molar value.
endpoint: pKi

# structureNotation, assayedTarget, endpoint, reportedMeasurement
measured = [
    ("CN1CCN([C@H]2CC[C@H](c3ccc(OCCCN4CCCCC4)cc3)CC2)CC1", "UniProt:Q9Y5N1", "pKi", 9.49),
    ("c1cc([C@H]2CC[C@H](N3CCCC3)CC2)ccc1OCCCN1CCCCC1", "UniProt:Q9Y5N1", "pKi", 9.60),
    ("CN([C@H]1CC[C@H](c2ccc(OCCCN3CCCCC3)cc2)CC1)S(=O)(=O)c1ccccc1", "UniProt:Q9Y5N1", "pKi", 8.26),
    ("c1ccc2c(c1)CN([C@H]1CC[C@H](c3ccc(OCCCN4CCCCC4)cc3)CC1)C2", "UniProt:Q9Y5N1", "pKi", 9.77),
    ("c1ccc(CN[C@H]2CC[C@H](c3ccc(OCCCN4CCCCC4)cc3)CC2)cc1", "UniProt:Q9Y5N1", "pKi", 9.59),
    ("OC1CCN([C@H]2CC[C@H](c3ccc(OCCCN4CCCCC4)cc3)CC2)CC1", "UniProt:Q9Y5N1", "pKi", 9.24),
    ("c1cc([C@H]2CC[C@H](N3CCC3)CC2)ccc1OCCCN1CCCCC1", "UniProt:Q9Y5N1", "pKi", 9.60),
    ("c1cc([C@H]2CC[C@@H](N3CCOCC3)CC2)ccc1OCCCN1CCCCC1", "UniProt:Q9Y5N1", "pKi", 9.17),
    ("CCCCN[C@H]1CC[C@H](c2ccc(OCCCN3CCCCC3)cc2)CC1", "UniProt:Q9Y5N1", "pKi", 9.19),
    ("CN1CCN([C@H]2CC[C@@H](c3ccc(OCCCN4CCCCC4)cc3)CC2)CC1", "UniProt:Q9Y5N1", "pKi", 9.04),
]
